The reported numbers originate from the RNAGym collection of RNA variant scans (doi:10.1021/acssynbio.7b00057).

B1: Pistol ribozyme (parent)
chain: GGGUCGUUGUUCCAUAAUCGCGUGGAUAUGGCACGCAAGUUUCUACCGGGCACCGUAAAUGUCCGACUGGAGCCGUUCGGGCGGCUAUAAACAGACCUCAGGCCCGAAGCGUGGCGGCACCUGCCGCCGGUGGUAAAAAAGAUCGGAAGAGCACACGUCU

# Variants of: B1
# experiment summary: aptazyme ON/OFF ratio, guanine; higher = stronger switching; co-transcriptional cleavage with and without guanine
For each entry below, report its aptazyme ON/OFF ratio value.
Quick one: just the number, no unit, thanks!

The recorded aptazyme ON/OFF ratio for U7A U8C G9U U10A U11G C13G is 1.1

The recorded aptazyme ON/OFF ratio for U7C U8A G9A U11G C13A is 1.18

The recorded aptazyme ON/OFF ratio for G9U U10G U11A C12U C13G is 1.24

The recorded aptazyme ON/OFF ratio for U7A U11A C12U C13U is 1.31

The recorded aptazyme ON/OFF ratio for U7G G9A C12G C13U is 1.18

The recorded aptazyme ON/OFF ratio for U7C U10C U11G C12A C13G is 1.19

The recorded aptazyme ON/OFF ratio for U8A G9U U10G U11G C13U is 1.03

The recorded aptazyme ON/OFF ratio for U7G U8C G9U C12U C13U is 1.41

The recorded aptazyme ON/OFF ratio for U7C U8G G9A C12A is 1.34

The recorded aptazyme ON/OFF ratio for U7C U8A G9C U11C C12U C13U is 1.12

The recorded aptazyme ON/OFF ratio for U7G G9U U10C C12A is 2.03

The recorded aptazyme ON/OFF ratio for G9U U10A U11C C12U is 1.79

The recorded aptazyme ON/OFF ratio for U8A G9A U10G U11G C12A is 1.09

The recorded aptazyme ON/OFF ratio for U7C U8C G9A U10A U11G is 1.55

The recorded aptazyme ON/OFF ratio for U7C U8G G9U U10C U11A C12U C13G is 1.27

The recorded aptazyme ON/OFF ratio for U7G U8C G9U U10G U11A C13A is 1.08

The recorded aptazyme ON/OFF ratio for G9A U10G U11A C12U C13G is 1.2

The recorded aptazyme ON/OFF ratio for U7G U8C G9C U11G C12A is 1.39

The recorded aptazyme ON/OFF ratio for U7G U8A G9A U10G U11C C13A is 1.09

The recorded aptazyme ON/OFF ratio for U8G G9C U10G U11C C12A C13A is 1.04

The recorded aptazyme ON/OFF ratio for U7G U8C G9A U10G U11C C13A is 1.14

The recorded aptazyme ON/OFF ratio for U7C U8A U10A U11C C12U is 1.01

The recorded aptazyme ON/OFF ratio for U7C G9U U11G C12U C13A is 1.17

The recorded aptazyme ON/OFF ratio for U7C U8G G9C U10A C12G C13A is 1.2

The recorded aptazyme ON/OFF ratio for U7A U8A G9A U10A U11G C12U C13U is 1.3

The recorded aptazyme ON/OFF ratio for U7A U8A G9C U11G C12A C13U is 1.23

The recorded aptazyme ON/OFF ratio for G9A U10C C13A is 1.08

The recorded aptazyme ON/OFF ratio for U7A U8C U10A U11G C12U C13U is 1.26

The recorded aptazyme ON/OFF ratio for U8G G9A U10A U11G C12G C13U is 1.28

The recorded aptazyme ON/OFF ratio for U7C U8A G9A U10A C12G C13G is 1.24

The recorded aptazyme ON/OFF ratio for U7A U8A G9C U10C U11C C12A C13A is 1
